# MEASURED ON: UniProt P56817
# Sequence (P56817 whole entry): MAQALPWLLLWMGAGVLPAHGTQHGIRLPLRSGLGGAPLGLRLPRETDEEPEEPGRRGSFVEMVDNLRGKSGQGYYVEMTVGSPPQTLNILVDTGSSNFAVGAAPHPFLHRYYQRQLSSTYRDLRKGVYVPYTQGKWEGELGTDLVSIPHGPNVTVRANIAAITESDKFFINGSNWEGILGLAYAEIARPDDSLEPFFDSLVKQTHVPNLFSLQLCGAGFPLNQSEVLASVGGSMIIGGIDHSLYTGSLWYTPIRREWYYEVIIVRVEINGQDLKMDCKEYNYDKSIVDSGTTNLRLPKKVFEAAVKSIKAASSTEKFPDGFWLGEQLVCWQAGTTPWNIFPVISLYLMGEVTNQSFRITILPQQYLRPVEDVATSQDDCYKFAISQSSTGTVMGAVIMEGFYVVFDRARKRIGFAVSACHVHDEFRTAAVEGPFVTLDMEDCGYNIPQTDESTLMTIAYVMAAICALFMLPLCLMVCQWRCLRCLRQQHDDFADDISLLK
# PROTOCOL NOTES: Inhibition of recombinant human BACE1 at 0.2 uM by FRET analysis
ENDPOINT NAME: inhibition (%)
Field: numeric (%). Do not append units.

Reference set, count: 3
C[C@@H](NC(=O)c1cc(C(=O)N[C@@H](Cc2ccccc2)[C@@H](O)C(=O)Nc2nnc(Br)s2)cc(N(C)S(C)(=O)=O)c1)c1ccccc1 = 79
CCc1nnc(NC(=O)[C@H](O)[C@H](Cc2ccccc2)NC(=O)c2cc(C(=O)N[C@H](C)c3ccccc3)cc(N(C)S(C)(=O)=O)c2)s1 = 51
C[C@@H](NC(=O)c1cc(C(=O)N[C@@H](Cc2ccccc2)[C@@H](O)C(=O)Nc2ncc([N+](=O)[O-])s2)cc(N(C)S(C)(=O)=O)c1)c1ccccc1 = 73

API: the following record is the query input.
Ask: I have this compound here, "COC(=O)c1cnc(NC(=O)[C@H](O)[C@H](Cc2ccccc2)NC(=O)c2cc(C(=O)N[C@H](C)c3ccccc3)cc(N(C)S(C)(=O)=O)c2)s1" , and I need its recorded inhibition.
Reply: 56
